Study target: SARS-COV-2 RBD extracellular domain expressed with a C-terminal myc-myc-hexahistidine tag (SARS-COV-2 RBD-mmH) (SARS-CoV-2)
Protocol text: SPR Biacore, mAb captured on anti-hFc, RBD-mmH analyte, 37 C
# koff values compiled below
Write the answer as a number in s⁻¹, unit excluded.

Binder | Quantity name | Endpoint value
mAb14256 (antibody, V domains shown) VH: QVQLQESGPGLVKPSETLSLTCTVSGGSISSHYWSWIRQPPGKGLEWIGYIYYSGSSNYNPSLKSRVTISVDTSKNQFSLKLNSVTAADTAVYYCARHYDILTGFDWFDPWGQGTLVTVSS VL: QSVLTQPPSVSGAPGQRVTISCTGSSSNIGTHYDVHWYQQLPGTAPKLLIYGNSNRPSGVPDRFSGSKSGTSASLAITGLQAEDEADYYCQSFDNSLTAPYVFGTGTKVTVLG | koff | 0.0115

Reported koff for mAb14257 (antibody, V domains shown) VH: EVQLVESGGGLVQPGGSLRLSCAASGFTVSRSYMNWVRQAPGKGLEWVSVVFTGGTTKHTDSVKGRFTISRDNSMNTLYLQMNSLRPEDTAVYYCARVAIVETTGAFDIWGQGTMVTVSS VL: QSVLTQPPSVSGAPGQRVTISCTGTSSNIGADFDVHWYQQFPGTAPKLLIYGHTNRPSGIPDRFSGSKSGTSASLAITGLQAEDEADYYCQSYDSSLSGSVVFGGGTKLTVLG was 0.00762
